Reported pKd values follow for various binders
- experimental system: T1, Recombinant human OX40-His protein (human, UniProt P43489 29-214, limits assumed)
- T1 construct: Recombinant antigen protein; also called recombinant human OX-40 protein; human OX-40 protein; not shown: His tag
- T1 sequence (looked up): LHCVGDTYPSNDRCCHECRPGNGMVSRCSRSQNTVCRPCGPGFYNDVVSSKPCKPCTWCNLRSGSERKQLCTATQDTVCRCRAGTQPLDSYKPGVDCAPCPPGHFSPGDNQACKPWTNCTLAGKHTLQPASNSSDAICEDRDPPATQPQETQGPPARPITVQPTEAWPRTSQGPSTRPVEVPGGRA
- test name: kinetic ranking (RU, 1:1 binding model), prokaryotically expressed antibody product as ligand, OX40-His as analyte
Kindly note that pKd refers to -log10 of the concentration in mol/L and answer with the value alone.

binder="AH02915, prokaryotically expressed antibody product (back-mutation screening) (Fab, V domains shown) VH: QVQLVQSGAEVKKPGASVKVSCKASGYTFTDYSMHWVKQAPGQGLEWMGWISTETGEPTYADDFKGRVTITLDTSASTAYLEISSLRSEDTAVYYCARVRPWYLAVWGQGTLVTVSS VL: DIQMTQSPSSLSASVGDRVTITCRASQDISNYLNWYQQKPGKAPKLLIYYTSRLYSGVPSRFSGSGSGTDFTLTISSLQPEDIATYFCQQANTLPLTFGGGTKLEIK" reported_measurement=7.84

As a next step, examine the binder that follows.
input: Need pKd of AH02922, prokaryotically expressed antibody product (back-mutation screening) (Fab, V domains shown) VH: QVQLVQSGAEVKKPGASVKISCKASGYTFTDYSMHWVRQAPGQRLEWMGWISTETGEPTYADDFKGRVTITRDTSASTAYMELSSLRSEDTAVYYCARVRPWYLVVWGQGTLVTVSS VL: DIQMTQSPSSLSASVGDRVTITCRASQDISNYLNWYQQKPGKAPKLLIYYTSRLYSGVPSRFSGSGSGTDYTLTISSLQPEDIATYYCQQANTLPLTFGGGTKLEIK , thanks.
output: 8.63
